These measurements were taken from patent US20150086555A1.

# MEASUREMENT TARGET: recombinant homotrimeric HA A/Egypt/3300-NAMRU3/08 H5N1 (Influenza A virus A/Egypt/3300-NAMRU3/2008(H5N1))
# PROTOCOL DETAILS: protein microarray, purified IgG, trimeric HA
# CONDITION CONTEXT: remark: other sources report otherwise
MEASURED PARAMETER: Trimeric HA Binding: RLU (RLU)

BINDER: TCN-551 (5243_D01) (antibody, V domains shown) VH: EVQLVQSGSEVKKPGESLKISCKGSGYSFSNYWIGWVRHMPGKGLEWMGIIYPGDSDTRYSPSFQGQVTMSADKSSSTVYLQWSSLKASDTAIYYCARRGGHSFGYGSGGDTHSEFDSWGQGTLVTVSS VL: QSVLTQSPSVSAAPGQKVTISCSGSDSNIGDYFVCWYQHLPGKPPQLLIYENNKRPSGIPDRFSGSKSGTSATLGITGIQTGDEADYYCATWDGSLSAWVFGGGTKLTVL
MEASURED PARAMETER: Trimeric HA Binding: RLU
NUMERIC VALUE: 907
//
BINDER: TCN-531 (5091_H13) (antibody, V domains shown) VH: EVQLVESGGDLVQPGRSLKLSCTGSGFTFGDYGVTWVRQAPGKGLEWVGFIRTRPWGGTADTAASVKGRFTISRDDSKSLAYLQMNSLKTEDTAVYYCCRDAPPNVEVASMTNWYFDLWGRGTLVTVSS VL: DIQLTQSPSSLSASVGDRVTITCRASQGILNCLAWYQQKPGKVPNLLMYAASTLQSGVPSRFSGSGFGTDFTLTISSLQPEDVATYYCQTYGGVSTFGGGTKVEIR
MEASURED PARAMETER: Trimeric HA Binding: RLU
NUMERIC VALUE: 2810
//
BINDER: TCN-522 (3212_I12) (antibody, V domains shown) VH: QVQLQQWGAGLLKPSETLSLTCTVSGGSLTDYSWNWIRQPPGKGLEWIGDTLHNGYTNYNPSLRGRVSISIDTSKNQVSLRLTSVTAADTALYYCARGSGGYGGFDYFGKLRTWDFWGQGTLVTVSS VL: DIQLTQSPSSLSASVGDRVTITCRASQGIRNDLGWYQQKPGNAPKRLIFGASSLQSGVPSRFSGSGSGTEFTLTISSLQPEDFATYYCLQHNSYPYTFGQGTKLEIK
MEASURED PARAMETER: Trimeric HA Binding: RLU
NUMERIC VALUE: 11300
